system: SR; assay: Cytotoxicity against human SR cells assessed as growth inhibition at 10 uM after 48 hrs by SRB assay; type: functional; settings: read-out: GI
Lab note: anything with inhibition of growth at 10 µM at or over 20% counts as Condition met; the rest go in Condition not met.

Worked examples follow.
• COc1cc(NC(=O)CCSc2nc3ccccc3c(=O)n2-c2ccc(F)cc2)cc(OC)c1OC = Condition not met
• COc1cc(NC(=O)CCSc2nc3ccc(Cl)cc3c(=O)n2-c2ccc(F)cc2)cc(OC)c1OC = Condition met
• COc1cc(NC(=O)CCSc2nc3ccccc3c(=O)n2-c2ccccc2)cc(OC)c1OC = Condition not met
• COc1cc2nc(SCCC(=O)Nc3cc(OC)c(OC)c(OC)c3)n(-c3ccccc3)c(=O)c2cc1OC = Condition not met
• COc1cc(NC(=O)CSc2nc3ccc(C)cc3c(=O)n2-c2ccccc2)cc(OC)c1OC = Condition met

Q: Check if inhibition of growth at 10 µM >= 20% (inclusive). Item: `COc1cc(NC(=O)CCSc2nc3ccc(Cl)cc3c(=O)n2-c2ccccc2)cc(OC)c1OC`
A: Condition not met
